assay info: AUC (0 to 24 hrs) in rat at 5 mg/kg, po
Assay type: ADME, organism-based
Parameters: time < 24 hr, dose 5 mg/kg, route oral
setup conditions: plasma

{"structure smiles": "Cc1nn(C)c2nc(N(C)CCN(C)C)c(C(=O)NC(=O)Nc3cccc(OC(C)C)c3)cc12.Cl", "AUC(0-t) at 24 h, ng·h/mL": 1620}

====

measurement target: CYP2C19 (Homo sapiens)
Sequence (P33261 whole entry): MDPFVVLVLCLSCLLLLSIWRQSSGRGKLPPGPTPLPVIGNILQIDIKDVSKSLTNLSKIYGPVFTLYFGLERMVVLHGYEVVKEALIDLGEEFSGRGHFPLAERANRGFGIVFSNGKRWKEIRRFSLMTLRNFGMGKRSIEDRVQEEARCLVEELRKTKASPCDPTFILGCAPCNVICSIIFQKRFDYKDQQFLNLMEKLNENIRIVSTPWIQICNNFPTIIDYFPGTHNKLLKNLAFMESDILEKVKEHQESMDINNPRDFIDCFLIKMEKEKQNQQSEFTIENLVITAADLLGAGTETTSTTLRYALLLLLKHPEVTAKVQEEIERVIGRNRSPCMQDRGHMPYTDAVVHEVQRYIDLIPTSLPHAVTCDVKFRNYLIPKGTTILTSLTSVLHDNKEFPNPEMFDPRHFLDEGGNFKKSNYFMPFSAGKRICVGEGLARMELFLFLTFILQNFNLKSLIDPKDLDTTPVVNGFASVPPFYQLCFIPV
assay info: Inhibition of CYP2C19 at 1 uM
Assay type: ADME

{"structure smiles": "Cc1nn(C)c2nc(N(C)CCN(C)C)c(C(=O)NC(=O)Nc3cccc(OC(C)C)c3)cc12.Cl", "measurement target": "CYP2C19 (Homo sapiens)", "inhibition at 1 µM (%)": -8}
